Would you mind telling me the reported pIC50 of each entry?
# tgt: UniProtKB P10721
# Sequence (P10721 26-976): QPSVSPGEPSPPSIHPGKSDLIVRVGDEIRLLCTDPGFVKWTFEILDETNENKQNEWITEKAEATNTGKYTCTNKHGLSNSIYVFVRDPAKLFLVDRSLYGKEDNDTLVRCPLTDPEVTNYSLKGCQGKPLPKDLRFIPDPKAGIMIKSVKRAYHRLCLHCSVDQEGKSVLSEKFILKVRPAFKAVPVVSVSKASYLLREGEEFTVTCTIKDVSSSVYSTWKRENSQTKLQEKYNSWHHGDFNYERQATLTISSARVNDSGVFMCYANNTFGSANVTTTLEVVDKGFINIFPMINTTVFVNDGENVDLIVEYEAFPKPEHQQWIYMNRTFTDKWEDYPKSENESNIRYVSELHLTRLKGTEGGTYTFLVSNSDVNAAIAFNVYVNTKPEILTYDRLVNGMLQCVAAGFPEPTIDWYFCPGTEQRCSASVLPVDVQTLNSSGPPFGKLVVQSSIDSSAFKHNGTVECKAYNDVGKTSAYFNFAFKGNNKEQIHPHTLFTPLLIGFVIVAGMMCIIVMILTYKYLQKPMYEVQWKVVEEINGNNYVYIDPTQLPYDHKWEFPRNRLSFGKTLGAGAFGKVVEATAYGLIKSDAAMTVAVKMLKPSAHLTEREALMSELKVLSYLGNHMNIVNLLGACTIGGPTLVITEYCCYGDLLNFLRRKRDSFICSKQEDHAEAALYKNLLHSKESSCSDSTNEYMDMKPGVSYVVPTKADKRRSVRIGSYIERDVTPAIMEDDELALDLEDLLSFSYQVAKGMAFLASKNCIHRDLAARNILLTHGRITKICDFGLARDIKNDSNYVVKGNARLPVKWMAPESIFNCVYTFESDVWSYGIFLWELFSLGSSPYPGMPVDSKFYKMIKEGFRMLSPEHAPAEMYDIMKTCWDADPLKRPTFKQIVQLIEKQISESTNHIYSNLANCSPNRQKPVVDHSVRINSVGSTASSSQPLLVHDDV
# protocolNotes: Proliferation assay (CellTiter-Blue) on BaF3 Kit WT cell line
# conditionDetails: BaF3 Kit WT cell line (murine Ba/F3 expressing Human Kit WT, with murine SCF), 48 hours
pIC50: −log10 of the molar value.

## Input Assign pIC50 to the following record: Cc1cc2[nH]c(-c3cc(F)cc(C(F)(F)F)c3)nc2cc1Nc1nc(-c2ccncc2)cs1
## Output ≥ 6.00

## Input Assign pIC50 to the following record: Cc1cc2nc(-c3cccc(CN4CCN(C)CC4)c3)[nH]c2cc1Nc1nc(-c2cccnc2)cs1
## Output 5.00 to 6.00

## Input Assign pIC50 to the following record: Cc1cc2nc(-c3cccc(CN4CCOCC4)c3)[nH]c2cc1Nc1nccc(-c2cccnc2)n1
## Output 5.00 to 6.00

## Input Assign pIC50 to the following record: Cc1cc2c(cc1Nc1nc(-c3ccncc3)cs1)nc(-c1cccc(C(C)C)c1)n2C
## Output ≥ 6.00

## Input Assign pIC50 to the following record: Cc1cc2[nH]c(-c3cccc(C(C)C)c3)nc2cc1Nc1nc(-c2ccncc2)cs1
## Output ≥ 6.00

## Input Assign pIC50 to the following record: CCS(=O)(=O)Nc1cccc(-c2nc3cc(Nc4nc(-c5ccncc5)cs4)c(C)cc3n2C)c1
## Output 5.00 to 6.00

## Input Assign pIC50 to the following record: Cc1cc2nc(-c3cc(CN4CCOCC4)cc(C(F)(F)F)c3)[nH]c2cc1Nc1nccc(-c2cccnc2)n1
## Output ≥ 6.00

## Input Assign pIC50 to the following record: Cc1cc2nc(-c3cnc4ccccc4c3)[nH]c2cc1Nc1nccc(-c2cccnc2)n1
## Output 5.00 to 6.00
